Entry source: PubChem BioAssay AID1159580

Test: chemical genetic growth profiling, strain panel (AID 1159580);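 note: tested at 20 µM; growth read once vehicle control cultures reached saturation at 30 °C; 1 = growth at the plate median or of vehicle wells; lower values mean less growth of the strain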
Details: S. cerevisiae deletion strains, growth OD, locus YLR418C, strain cdc73, stronger effect = lower value
About 2,000 (36%) of roughly 5,500 compounds were called active. About 18% were inconclusive and are not listed. Some of the results follow.
READOUT_TYPE: normalized growth
One number for each entry.

Please review the entries below; each comes with its answer.
COc1c2ccoc2nc2c(OC)c(OCC(O)C(C)(C)O)ccc12 (centres undefined) : 1.04
CC1(C)C(O)CC(O)C2(C)C1CC(O)C1(C)C2CCC2(C)C(c3ccoc3)OC(=O)C3OC321 (centres undefined) : 1.02
COC(=O)CCC(C)C1CCC2C3CC[C@@H]4C[C@H](O)CC[C@]4(C)C3C[C@H](O)[C@]12C (some centres undefined) : 0.77
CC(CCC(=O)O)[C@H]1CCC2C3CC[C@@H]4C[C@H](O)CC[C@]4(C)C3C[C@H](O)[C@@]21C (some centres undefined) : 1.03
CCC(=O)Nc1ccc(Cl)c(Cl)c1 : 0.866

Lab note: each compound below needs its normalized growth filled in.
1. CC(CCC(=O)O)[C@H]1CCC2C3CC[C@@H]4CCCC[C@]4(C)C3CC[C@@]21C (some centres undefined)
2. COc1c(Cl)ccc(Cl)c1C(=O)O
3. Nc1ccncc1

OUTPUT:
1: 0.975; 2: 1.02; 3: 0.935

INPUT: What normalized growth value was documented for this compound, "COC(=O)c1c(C)cc(OC(=O)c2c(C)c(Cl)c(O)c(C=O)c2O)c(C)c1O" ?
OUTPUT: 1
